- System: 616215-338-R-J1-PDC complex spheroids, viability % test/control
- Method summary: Anticancer human tumor 616215-338-R-J1-PDC patient-derived colon adenocarcinoma cell line growth inhibition [CLK]; active means viability on the fitted dose curve at most 10% of control; inactive means the rest
- Condition info: second compound 3.16 µM; first compound 0.003 µM
- Description: A high-throughput screen of multi-cell type tumor spheroids was designed to identify active combinations of […] and targeted small molecules. Complex spheroids include a stromal component modeled by human endothelial cells (HUVEC) and fibroblasts modeled by human mesenchymal stem cells (MSCs). […] Compounds. […] If the clinical Cmax for an agent had not been determined, the highest concentration tested was 10 microM. […]
Outcomes: yes (1) = active, no (0) = inactive

{"columns": ["Molecule", "Target entity", "Classification"],
 "data": [
  ["CC(C)CC(NC(=O)C(Cc1ccccc1)NC(=O)c1cnccn1)B(O)O (centres undefined) + CNC(=O)c1ccc(Nc2nc(OC3CCCC3)c3c(-c4ccc5nc(C)oc5c4)c[nH]c3n2)c(OC)c1", "616215-338-R-J1-PDC complex spheroids, viability % test/control", "no (0)"],
  ["CC(C)CC(NC(=O)C(Cc1ccccc1)NC(=O)c1cnccn1)B(O)O (centres undefined) + CN1CCN(c2cc(C(=O)Nc3cc4cc(-c5cnn(C)c5)ccc4cn3)ccn2)CC1", "616215-338-R-J1-PDC complex spheroids, viability % test/control", "yes (1)"],
  ["C=CC(=O)Nc1cc(Nc2nccc(-c3cn(C)c4ccccc34)n2)c(OC)cc1N(C)CCN(C)C + CNC(=O)c1ccc(Nc2nc(OC3CCCC3)c3c(-c4ccc5nc(C)oc5c4)c[nH]c3n2)c(OC)c1", "616215-338-R-J1-PDC complex spheroids, viability % test/control", "no (0)"],
  ["C=CC(=O)Nc1cc(Nc2nccc(-c3cn(C)c4ccccc34)n2)c(OC)cc1N(C)CCN(C)C + CN1CCN(c2cc(C(=O)Nc3cc4cc(-c5cnn(C)c5)ccc4cn3)ccn2)CC1", "616215-338-R-J1-PDC complex spheroids, viability % test/control", "yes (1)"]
]}

---

- System: 616215-338-R-J1-PDC complex spheroids, viability % test/control
- Method summary: Anticancer human tumor 616215-338-R-J1-PDC cell line growth inhibition [CLK]; active = viability on the fitted dose curve at most 10% of control; inactive = the rest;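 further: spheroids exposed to agents for 7 days; 100% = DMSO vehicle wells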
- Condition info: second compound 0.0316 µM; first compound 0.00949 µM
- From the text: A high-throughput screen of multi-cell type tumor spheroids was designed to identify active combinations of […] and targeted small molecules. Complex spheroids include a stromal component modeled by human endothelial cells (HUVEC) and fibroblasts modeled by human mesenchymal stem cells (MSCs). […] Compounds. […] If the clinical Cmax for an agent had not been determined, the highest concentration tested was 10 microM. […]
Classes used: active, inactive

{"columns": ["Compound", "Target entity", "Classification"],
 "data": [
  ["NC(=O)C(=Cn1cnc(-c2cc(C(F)(F)F)cc(C(F)(F)F)c2)n1)c1cncnc1 + CNC(=O)c1ccc(Nc2nc(OC3CCCC3)c3c(-c4ccc5nc(C)oc5c4)c[nH]c3n2)c(OC)c1", "616215-338-R-J1-PDC complex spheroids, viability % test/control", "inactive"],
  ["CC(C)CC(NC(=O)C(Cc1ccccc1)NC(=O)c1cnccn1)B(O)O (stereo unspecified) + CN1CCN(c2cc(C(=O)Nc3cc4cc(-c5cnn(C)c5)ccc4cn3)ccn2)CC1", "616215-338-R-J1-PDC complex spheroids, viability % test/control", "active"],
  ["CC(C)CC(NC(=O)C(Cc1ccccc1)NC(=O)c1cnccn1)B(O)O (stereo unspecified) + CNC(=O)c1ccc(Nc2nc(OC3CCCC3)c3c(-c4ccc5nc(C)oc5c4)c[nH]c3n2)c(OC)c1", "616215-338-R-J1-PDC complex spheroids, viability % test/control", "active"],
  ["C=CC(=O)Nc1cc(Nc2nccc(-c3cn(C)c4ccccc34)n2)c(OC)cc1N(C)CCN(C)C + CNC(=O)c1ccc(Nc2nc(OC3CCCC3)c3c(-c4ccc5nc(C)oc5c4)c[nH]c3n2)c(OC)c1", "616215-338-R-J1-PDC complex spheroids, viability % test/control", "inactive"],
  ["NC(=O)C(=Cn1cnc(-c2cc(C(F)(F)F)cc(C(F)(F)F)c2)n1)c1cncnc1 + CN1CCN(c2cc(C(=O)Nc3cc4cc(-c5cnn(C)c5)ccc4cn3)ccn2)CC1", "616215-338-R-J1-PDC complex spheroids, viability % test/control", "inactive"],
  ["C=CC(=O)Nc1cc(Nc2nccc(-c3cn(C)c4ccccc34)n2)c(OC)cc1N(C)CCN(C)C + CN1CCN(c2cc(C(=O)Nc3cc4cc(-c5cnn(C)c5)ccc4cn3)ccn2)CC1", "616215-338-R-J1-PDC complex spheroids, viability % test/control", "inactive"]
]}

Numbers sourced from PubChem BioAssay AID2060610.
